molecular target: Butyrylcholinesterase (Rattus norvegicus); assay: Inhibition of rat serum BuChE using butyrylthiocholine iodide as substrate after 15 mins by Ellman's method
Sequence (Q9JKC1 whole entry): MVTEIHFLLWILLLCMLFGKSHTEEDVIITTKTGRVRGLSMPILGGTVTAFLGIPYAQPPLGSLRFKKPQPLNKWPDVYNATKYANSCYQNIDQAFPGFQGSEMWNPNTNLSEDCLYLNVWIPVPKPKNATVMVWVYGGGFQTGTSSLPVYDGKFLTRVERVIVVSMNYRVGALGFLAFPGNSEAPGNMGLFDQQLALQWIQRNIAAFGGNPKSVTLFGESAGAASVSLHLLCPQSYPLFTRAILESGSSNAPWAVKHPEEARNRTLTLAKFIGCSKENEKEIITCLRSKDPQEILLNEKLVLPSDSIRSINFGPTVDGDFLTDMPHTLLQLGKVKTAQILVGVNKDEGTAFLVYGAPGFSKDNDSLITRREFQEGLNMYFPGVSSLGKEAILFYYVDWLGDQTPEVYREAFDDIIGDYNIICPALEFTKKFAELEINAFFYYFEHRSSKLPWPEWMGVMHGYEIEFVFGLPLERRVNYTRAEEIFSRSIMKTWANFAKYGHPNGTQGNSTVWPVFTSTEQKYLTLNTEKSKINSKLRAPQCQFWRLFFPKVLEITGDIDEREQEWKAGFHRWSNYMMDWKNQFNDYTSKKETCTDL
measurement kind: IC50 (µM)

| chemical smiles | assay target | measurement kind | readout qualifier | obs value |
| --- | --- | --- | --- | --- |
| CCN(CCCNC(=O)c1cc(O)c(C(=O)NCCCN(CC)Cc2ccccc2OC)cc1O)Cc1ccccc1OC | Butyrylcholinesterase (Rattus norvegicus) | IC50 | > | 100 |
| CCN(CCCCCCNC(=O)c1cc(O)c(C(=O)NCCCCCCN(CC)Cc2ccccc2)cc1O)Cc1ccccc1 | Butyrylcholinesterase (Rattus norvegicus) | IC50 | = | 47.2 |
| COc1ccccc1CN(C)CCCCNC(=O)c1cc(O)c(C(=O)NCCCCN(C)Cc2ccccc2OC)cc1O | Butyrylcholinesterase (Rattus norvegicus) | IC50 | = | 19.2 |
| CCN(CCCCNC(=O)c1cc(O)c(C(=O)NCCCCN(CC)Cc2ccc(N(C)C)cc2)cc1O)Cc1ccc(N(C)C)cc1 | Butyrylcholinesterase (Rattus norvegicus) | IC50 | > | 100 |

###

test: Disaggregation of Cu2+ induced preformed fibrils of human amyloid beta (1 to 42) at 25 uM after 24 hrs by Thioflavin T based fluorometric assay relative to control
Listed here: items and their measured Activity.
measurement kind: Activity (%)

| chemical smiles | measurement unit | obs value |
| --- | --- | --- |
| COc1ccccc1CN(C)CCCCCCNC(=O)c1cc(O)c(C(=O)NCCCCCCN(C)Cc2ccccc2OC)cc1O | % | 89.8 |
| CCN(CCCCNC(=O)c1cc(O)c(C(=O)NCCCCN(CC)Cc2ccccc2)cc1O)Cc1ccccc1 | % | 80 |
| O=C(NCCCCN1CCOc2ccccc2C1)c1cc(O)c(C(=O)NCCCCN2CCOc3ccccc3C2)cc1O | % | 85.3 |
| CCN(CCCCNC(=O)c1cc(O)c(C(=O)NCCCCN(CC)Cc2ccc(N(C)C)cc2)cc1O)Cc1ccc(N(C)C)cc1 | % | 84.7 |
| CCN(CCCNC(=O)c1cc(O)c(C(=O)NCCCN(CC)Cc2ccccc2)cc1O)Cc1ccccc1 | % | 70.6 |
| COc1ccccc1CN(C)CCCNC(=O)c1cc(O)c(C(=O)NCCCN(C)Cc2ccccc2OC)cc1O | % | 73.5 |
| CCN(CCCCNC(=O)c1cc(O)c(C(=O)NCCCCN(CC)Cc2ccccc2N(C)C)cc1O)Cc1ccccc1N(C)C | % | 83.3 |

###

Listed here: items and their measured Papp at 18 h, 100 ug/ml.
assay: Effective permeability of the compound in PBS/EtOH at 100 ug/ml after 18 hrs by PAMPA; type: ADME; details: read-out: Peff
measurement kind: Papp at 18 h, 100 ug/ml

| chemical smiles | measurement kind | obs value |
| --- | --- | --- |
| CCN(CCCNC(=O)c1cc(O)c(C(=O)NCCCN(CC)Cc2ccccc2OC)cc1O)Cc1ccccc1OC | Papp at 18 h, 100 ug/ml | 4.23 ×10⁻⁶ cm/s |
| CCN(CCCCNC(=O)c1cc(O)c(C(=O)NCCCCN(CC)Cc2ccccc2OC)cc1O)Cc1ccccc1OC | Papp at 18 h, 100 ug/ml | 4.45 ×10⁻⁶ cm/s |
| CCN(CCCCCCNC(=O)c1cc(O)c(C(=O)NCCCCCCN(CC)Cc2ccccc2OC)cc1O)Cc1ccccc1OC | Papp at 18 h, 100 ug/ml | 5.54 ×10⁻⁶ cm/s |

###

target: Amyloid-beta precursor protein (Homo sapiens); assay: Disaggregation of self-induced preformed fibrils of human amyloid beta (1 to 42) at 25 uM after 24 hrs by Thioflavin T based fluorometric assay relative to control
Sequence (P05067 whole entry): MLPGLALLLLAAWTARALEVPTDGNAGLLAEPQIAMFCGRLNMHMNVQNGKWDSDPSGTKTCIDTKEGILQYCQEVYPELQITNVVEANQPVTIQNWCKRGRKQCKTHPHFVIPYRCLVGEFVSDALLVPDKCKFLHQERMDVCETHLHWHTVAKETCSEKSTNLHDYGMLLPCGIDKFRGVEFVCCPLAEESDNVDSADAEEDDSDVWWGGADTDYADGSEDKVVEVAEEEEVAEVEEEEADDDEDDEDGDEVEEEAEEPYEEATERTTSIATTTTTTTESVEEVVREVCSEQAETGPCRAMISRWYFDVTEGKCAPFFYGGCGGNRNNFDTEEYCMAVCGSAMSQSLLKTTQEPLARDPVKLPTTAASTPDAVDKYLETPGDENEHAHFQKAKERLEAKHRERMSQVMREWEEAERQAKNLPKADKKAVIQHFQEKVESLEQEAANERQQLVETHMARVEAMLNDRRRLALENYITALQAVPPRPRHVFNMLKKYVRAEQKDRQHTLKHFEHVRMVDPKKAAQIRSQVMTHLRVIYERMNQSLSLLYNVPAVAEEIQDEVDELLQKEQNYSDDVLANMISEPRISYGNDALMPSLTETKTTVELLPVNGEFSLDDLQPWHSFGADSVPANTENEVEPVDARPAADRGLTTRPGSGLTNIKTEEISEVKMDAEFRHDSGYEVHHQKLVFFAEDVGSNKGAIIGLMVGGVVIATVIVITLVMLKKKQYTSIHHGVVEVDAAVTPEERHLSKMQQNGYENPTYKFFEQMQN
The label depends only on Activity: fulfilled if it is at least 70%, not fulfilled if it is smaller.

| chemical smiles | class label |
| --- | --- |
| CCN(CCCNC(=O)c1cc(O)c(C(=O)NCCCN(CC)Cc2ccccc2)cc1O)Cc1ccccc1 | not fulfilled |
| COc1ccccc1CN(C)CCCCCCNC(=O)c1cc(O)c(C(=O)NCCCCCCN(C)Cc2ccccc2OC)cc1O | fulfilled |
| COc1ccccc1CN(C)CCCCNC(=O)c1cc(O)c(C(=O)NCCCCN(C)Cc2ccccc2OC)cc1O | fulfilled |
| CCN(CCCCNC(=O)c1cc(O)c(C(=O)NCCCCN(CC)Cc2ccccc2)cc1O)Cc1ccccc1 | fulfilled |
| CCN(CCCNC(=O)c1cc(O)c(C(=O)NCCCN(CC)Cc2ccccc2OC)cc1O)Cc1ccccc1OC | fulfilled |
| CN(CCCCCCNC(=O)c1cc(O)c(C(=O)NCCCCCCN(C)Cc2ccccc2)cc1O)Cc1ccccc1 | fulfilled |
| CCN(CCCCNC(=O)c1cc(O)c(C(=O)NCCCCN(CC)Cc2ccccc2OC)cc1O)Cc1ccccc1OC | fulfilled |
| CCN(CCCCNC(=O)c1cc(O)c(C(=O)NCCCCN(CC)Cc2ccccc2N(C)C)cc1O)Cc1ccccc1N(C)C | not fulfilled |
| CCN(CCCCCCNC(=O)c1cc(O)c(C(=O)NCCCCCCN(CC)Cc2ccccc2)cc1O)Cc1ccccc1 | fulfilled |

###

experiment: Disaggregation of Cu2+ induced preformed fibrils of human amyloid beta (1 to 42) at 25 uM after 24 hrs by Thioflavin T based fluorometric assay relative to control
Listed here: items and their measured Activity.
measurement kind: Activity (%)

| chemical smiles | obs value |
| --- | --- |
| CCN(CCCCCCNC(=O)c1cc(O)c(C(=O)NCCCCCCN(CC)Cc2ccccc2OC)cc1O)Cc1ccccc1OC | 85.3 |
| CCN(CCCCNC(=O)c1cc(O)c(C(=O)NCCCCN(CC)Cc2ccccc2OC)cc1O)Cc1ccccc1OC | 77.2 |
| CN(CCCCNC(=O)c1cc(O)c(C(=O)NCCCCN(C)Cc2ccccc2)cc1O)Cc1ccccc1 | 77.9 |
| CN(CCCCCCNC(=O)c1cc(O)c(C(=O)NCCCCCCN(C)Cc2ccccc2)cc1O)Cc1ccccc1 | 89.3 |
| CCN(CCCNC(=O)c1cc(O)c(C(=O)NCCCN(CC)Cc2ccccc2OC)cc1O)Cc1ccccc1OC | 73.1 |
| COc1ccccc1CN(C)CCCCNC(=O)c1cc(O)c(C(=O)NCCCCN(C)Cc2ccccc2OC)cc1O | 76.3 |
| CCN(CCCCCCNC(=O)c1cc(O)c(C(=O)NCCCCCCN(CC)Cc2ccccc2)cc1O)Cc1ccccc1 | 82.3 |
| COc1cc(/C=C/C(=O)CC(=O)/C=C/c2ccc(O)c(OC)c2)ccc1O | 54.7 |
| CN(CCCNC(=O)c1cc(O)c(C(=O)NCCCN(C)Cc2ccccc2)cc1O)Cc1ccccc1 | 71.3 |

###

target: Acetylcholinesterase (Homo sapiens)
Sequence (P22303 whole entry): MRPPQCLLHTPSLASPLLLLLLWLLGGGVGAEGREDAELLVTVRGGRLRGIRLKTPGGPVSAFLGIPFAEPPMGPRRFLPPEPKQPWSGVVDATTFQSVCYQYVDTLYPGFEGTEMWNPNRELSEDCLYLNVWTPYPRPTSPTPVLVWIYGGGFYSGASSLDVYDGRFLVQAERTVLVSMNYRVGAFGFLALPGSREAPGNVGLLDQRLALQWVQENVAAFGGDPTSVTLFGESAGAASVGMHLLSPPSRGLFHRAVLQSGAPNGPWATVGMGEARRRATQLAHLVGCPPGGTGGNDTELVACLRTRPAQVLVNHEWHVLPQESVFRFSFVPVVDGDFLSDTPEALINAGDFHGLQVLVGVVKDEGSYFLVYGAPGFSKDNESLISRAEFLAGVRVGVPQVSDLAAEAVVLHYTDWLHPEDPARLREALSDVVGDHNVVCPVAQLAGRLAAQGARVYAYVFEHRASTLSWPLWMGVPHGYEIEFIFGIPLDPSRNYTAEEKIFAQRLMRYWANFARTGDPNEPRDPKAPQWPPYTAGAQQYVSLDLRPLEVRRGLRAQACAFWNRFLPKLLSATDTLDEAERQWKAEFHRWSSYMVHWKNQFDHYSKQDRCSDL
measurement kind: IC50 (µM)

| chemical smiles | assay target | measurement kind | obs value |
| --- | --- | --- | --- |
| O=C(O)c1ccccc1O | Acetylcholinesterase (Homo sapiens) | IC50 | 346 |

###

target: Acetylcholinesterase (Electrophorus electricus)
Sequence (O42275 whole entry): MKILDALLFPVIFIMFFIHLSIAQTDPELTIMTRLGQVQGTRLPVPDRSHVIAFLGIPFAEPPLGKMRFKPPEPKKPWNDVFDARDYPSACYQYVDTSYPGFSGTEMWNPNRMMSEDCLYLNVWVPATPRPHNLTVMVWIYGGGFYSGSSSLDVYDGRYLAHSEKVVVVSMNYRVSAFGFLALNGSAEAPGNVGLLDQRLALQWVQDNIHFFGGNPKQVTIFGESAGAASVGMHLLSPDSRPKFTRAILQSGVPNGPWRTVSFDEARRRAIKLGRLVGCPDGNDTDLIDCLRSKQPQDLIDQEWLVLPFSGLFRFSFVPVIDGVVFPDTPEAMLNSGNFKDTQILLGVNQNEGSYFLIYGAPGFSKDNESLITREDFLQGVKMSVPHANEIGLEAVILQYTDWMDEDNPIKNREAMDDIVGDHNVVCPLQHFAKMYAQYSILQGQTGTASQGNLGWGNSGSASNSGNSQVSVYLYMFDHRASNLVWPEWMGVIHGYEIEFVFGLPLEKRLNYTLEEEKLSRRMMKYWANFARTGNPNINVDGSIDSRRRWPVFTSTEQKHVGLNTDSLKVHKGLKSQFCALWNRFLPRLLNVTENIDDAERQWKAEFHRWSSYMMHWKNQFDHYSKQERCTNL
Field 'label' (enum: y / n). Set to y when IC50 is strictly under 10 µM; else n.

| chemical smiles | assay target | class label |
| --- | --- | --- |
| CN(CCCNC(=O)c1cc(O)c(C(=O)NCCCN(C)Cc2ccccc2)cc1O)Cc1ccccc1 | Acetylcholinesterase (Electrophorus electricus) | n |
| CCN(CCCCCCNC(=O)c1cc(O)c(C(=O)NCCCCCCN(CC)Cc2ccccc2OC)cc1O)Cc1ccccc1OC | Acetylcholinesterase (Electrophorus electricus) | y |
| CN(CCCCNC(=O)c1cc(O)c(C(=O)NCCCCN(C)Cc2ccccc2)cc1O)Cc1ccccc1 | Acetylcholinesterase (Electrophorus electricus) | n |
| CCOC(=O)c1cc(O)c(C(=O)OCC)cc1O | Acetylcholinesterase (Electrophorus electricus) | n |
| CCN(CCCCCCNC(=O)c1cc(O)c(C(=O)NCCCCCCN(CC)Cc2ccccc2)cc1O)Cc1ccccc1 | Acetylcholinesterase (Electrophorus electricus) | n |
| CCN(CCCCNC(=O)c1cc(O)c(C(=O)NCCCCN(CC)Cc2ccccc2OC)cc1O)Cc1ccccc1OC | Acetylcholinesterase (Electrophorus electricus) | y |
| COc1ccccc1CN(C)CCCCNC(=O)c1cc(O)c(C(=O)NCCCCN(C)Cc2ccccc2OC)cc1O | Acetylcholinesterase (Electrophorus electricus) | y |
| CN(CCCCCCNC(=O)c1cc(O)c(C(=O)NCCCCCCN(C)Cc2ccccc2)cc1O)Cc1ccccc1 | Acetylcholinesterase (Electrophorus electricus) | n |
| O=C(NCCCCN1CCOc2ccccc2C1)c1cc(O)c(C(=O)NCCCCN2CCOc3ccccc3C2)cc1O | Acetylcholinesterase (Electrophorus electricus) | n |
| COc1ccccc1CN(C)CCCCCCNC(=O)c1cc(O)c(C(=O)NCCCCCCN(C)Cc2ccccc2OC)cc1O | Acetylcholinesterase (Electrophorus electricus) | y |
| CCN(CCCCNC(=O)c1cc(O)c(C(=O)NCCCCN(CC)Cc2ccccc2N(C)C)cc1O)Cc1ccccc1N(C)C | Acetylcholinesterase (Electrophorus electricus) | n |
| COc1ccccc1CN(C)CCCNC(=O)c1cc(O)c(C(=O)NCCCN(C)Cc2ccccc2OC)cc1O | Acetylcholinesterase (Electrophorus electricus) | n |
| CCN(CCCNC(=O)c1cc(O)c(C(=O)NCCCN(CC)Cc2ccccc2OC)cc1O)Cc1ccccc1OC | Acetylcholinesterase (Electrophorus electricus) | n |
| CCN(CCCCNC(=O)c1cc(O)c(C(=O)NCCCCN(CC)Cc2ccc(N(C)C)cc2)cc1O)Cc1ccc(N(C)C)cc1 | Acetylcholinesterase (Electrophorus electricus) | n |
| CCN(CCCNC(=O)c1cc(O)c(C(=O)NCCCN(CC)Cc2ccccc2)cc1O)Cc1ccccc1 | Acetylcholinesterase (Electrophorus electricus) | n |
| CCN(CCCCNC(=O)c1cc(O)c(C(=O)NCCCCN(CC)Cc2ccccc2)cc1O)Cc1ccccc1 | Acetylcholinesterase (Electrophorus electricus) | n |
| O=C(O)c1cc(O)c(C(=O)O)cc1O | Acetylcholinesterase (Electrophorus electricus) | n |

Data provenance is ChEMBL document CHEMBL4382240.
